Entry source: patent US20240425523A1

- target.desc: EGFR L858R (BaF3-L858R cells) (Homo sapiens, UniProt P00533, L858R)
- Construct: host or cells: BaF3
- Sequence (P00533 25-1210 L858R): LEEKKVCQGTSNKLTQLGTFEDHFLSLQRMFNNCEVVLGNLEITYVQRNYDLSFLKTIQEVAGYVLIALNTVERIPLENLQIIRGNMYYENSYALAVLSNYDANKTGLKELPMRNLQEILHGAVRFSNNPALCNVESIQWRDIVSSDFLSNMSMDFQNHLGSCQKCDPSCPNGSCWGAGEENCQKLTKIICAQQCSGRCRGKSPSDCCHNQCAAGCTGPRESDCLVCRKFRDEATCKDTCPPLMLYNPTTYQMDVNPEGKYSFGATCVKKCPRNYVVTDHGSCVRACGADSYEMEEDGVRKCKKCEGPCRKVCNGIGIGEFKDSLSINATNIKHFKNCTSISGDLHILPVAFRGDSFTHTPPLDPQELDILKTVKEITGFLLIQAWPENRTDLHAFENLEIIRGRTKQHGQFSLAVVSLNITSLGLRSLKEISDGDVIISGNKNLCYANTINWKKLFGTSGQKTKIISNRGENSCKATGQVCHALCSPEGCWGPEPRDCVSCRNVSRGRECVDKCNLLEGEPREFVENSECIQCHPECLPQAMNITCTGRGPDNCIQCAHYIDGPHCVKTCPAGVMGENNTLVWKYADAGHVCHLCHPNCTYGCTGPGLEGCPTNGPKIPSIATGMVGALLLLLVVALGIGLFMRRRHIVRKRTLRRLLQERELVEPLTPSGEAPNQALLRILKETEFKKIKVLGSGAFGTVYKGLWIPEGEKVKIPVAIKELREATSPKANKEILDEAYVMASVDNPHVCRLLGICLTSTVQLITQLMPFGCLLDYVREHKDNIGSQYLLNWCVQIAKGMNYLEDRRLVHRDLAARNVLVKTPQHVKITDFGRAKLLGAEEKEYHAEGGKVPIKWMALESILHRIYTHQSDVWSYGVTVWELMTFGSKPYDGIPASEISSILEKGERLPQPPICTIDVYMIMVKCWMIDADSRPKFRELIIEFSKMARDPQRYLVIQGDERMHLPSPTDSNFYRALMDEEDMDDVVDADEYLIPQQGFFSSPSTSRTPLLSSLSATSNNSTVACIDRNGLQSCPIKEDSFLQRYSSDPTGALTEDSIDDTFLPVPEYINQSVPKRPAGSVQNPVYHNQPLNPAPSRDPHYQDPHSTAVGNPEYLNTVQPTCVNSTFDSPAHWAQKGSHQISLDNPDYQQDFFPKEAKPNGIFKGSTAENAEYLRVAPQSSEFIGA
- assay.comment: Cell degradation of EGFR, HTRF assay, BaF3-L858R cells
- Type: cell-based
- run.conditions: 16 h treatment, EGFR degradation
- Procedure: BaF3-L858R (abbv. L858R) cell were purchased from Kangyuan Bochuang Biotechnology (Beijing) Co., Ltd. H1975-#8 and BaF3-L858R cells are treated with compounds diluted in 0.1% DMSO cell culture medium on day 2, incubate for 16 h, 37° C., 5% CO2. the final concentration of compounds in all assay is start with 10 uM, 5-fold dilution, total 8 doses were included. […] High control=Cell group with added DMSO and without compound, indicating microplate readings without EGFR degradation; […]
measurement.label: DC50
Record the result as a number with its unit.

Entry under test: Cc1cc2cc(n1)-c1cnn(C)c1OC[C@H]1CC[C@H](C1)CN1/C(=N/C2=O)Nc2ccc(N3CCN([C@H]4CCN(c5cc(F)c(C6CCC(=O)NC6=O)nc5C)C[C@H]4F)CC3)cc21 (stereo partly shown) [Example 27] . Its DC50 was 1.75 nM
